Assignment: determine reported pIC50 for the given compounds.
# Target Entity: kinase domain of IRE1 alpha (His-tagged kinase dead construct KR, AA G547-L977, D688N) (Homo sapiens (Human), UniProt O75460, D688N)
# Sequence (O75460 547-977 D688N): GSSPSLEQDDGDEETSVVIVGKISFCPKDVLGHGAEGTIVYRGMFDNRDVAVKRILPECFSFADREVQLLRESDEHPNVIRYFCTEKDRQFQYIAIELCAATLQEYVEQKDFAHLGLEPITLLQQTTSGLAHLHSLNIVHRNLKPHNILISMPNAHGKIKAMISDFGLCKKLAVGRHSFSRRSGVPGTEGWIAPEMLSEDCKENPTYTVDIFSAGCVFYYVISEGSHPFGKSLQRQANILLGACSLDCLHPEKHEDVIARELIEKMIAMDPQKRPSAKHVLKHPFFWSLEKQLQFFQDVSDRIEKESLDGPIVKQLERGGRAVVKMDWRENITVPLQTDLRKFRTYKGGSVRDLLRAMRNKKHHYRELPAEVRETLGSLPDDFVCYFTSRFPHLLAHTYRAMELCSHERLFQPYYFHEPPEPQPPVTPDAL
# Run Description: IRE1α TR-FRET competition binding assay
# Experimental Parameters: competition with Kinase Tracer 236, 0.1 μM; one hour at room temperature
Counter-ions that a name gives are not always drawn.
Schema: pIC50 number; meaning minus log10 of the concentration expressed in molar units.

## Task Data request, read-out pIC50, for O=S(=O)(Cc1ccc(F)cc1)Nc1c(F)cc(Oc2ncccc2-c2ccnc(N[C@@H]3CNC[C@@H](F)C3)n2)c(F)c1F
## Result 9.70

## Task Query Cc1c(Oc2ncccc2-c2ccnc(N[C@H]3CCCNC3)n2)ccc(NS(=O)(=O)Cc2ccccc2)c1F next
## Result 8.08

## Task Query N#Cc1ccc(S(=O)(=O)Nc2ccc(Oc3ncccc3-c3ccnc(N[C@H]4CCCNC4)n3)c(F)c2F)cc1 next
## Result 7.28

## Task Query Cc1c(F)c(NS(=O)(=O)Cc2ccc(C#N)cc2)c(F)c(F)c1Oc1ncccc1-c1ccnc(N[C@@H]2CNC[C@@H](F)C2)n1 next
## Result 6.64

## Task Query CCC(F)(F)CS(=O)(=O)Nc1c(F)cc(Oc2ncccc2-c2ccnc(N[C@H]3CCCNC3)n2)c(F)c1F next
## Result 8.40

## Task Query O=S(=O)(Cc1ccc(Cl)cc1F)Nc1c(F)cc(Oc2ncccc2-c2ccnc(N[C@@H]3CNC[C@@H](F)C3)n2)c(F)c1F next
## Result 9.52

## Task Query Cc1cc(NC(=O)C2CC2)cc(F)c1Oc1ncccc1-c1ccnc(N[C@H]2CC[C@H](N)CC2)n1 [Compound 120, hydrochloride] next
## Result 6.96

## Task Query COCC1CNCC(Nc2nccc(-c3cccnc3Oc3cc(F)c(NS(=O)(=O)Cc4ccccc4)c(F)c3F)n2)C1 (single isomer, unassigned) [Compound 330] next
## Result 7.06

## Task Query O=S(=O)(Cc1ccccc1)Nc1c(F)cc(Oc2ncccc2-c2ccnc(N[C@@H]3CNC[C@H](F)C3)n2)c(F)c1F next
## Result 8.70

## Task Query O=S(=O)(CC1(F)CC1)Nc1ccc(Oc2ncccc2-c2ccnc(N[C@H]3CCCNC3)n2)c(F)c1F next
## Result 7.96

## Task Query O=S(=O)(Nc1ccc(Oc2ncccc2-c2ccnc(N[C@H]3CCCNC3)n2)c(F)c1F)c1cccnc1 next
## Result 7.36

## Task Query Cc1cc(NS(=O)(=O)c2ccccc2Cl)ccc1Oc1ncccc1-c1ccnc(N[C@H]2CC[C@H](N)CC2)n1 [Compound 101, hydrochloride] next
## Result 7.89

## Task Query O=S(=O)(Cc1ccccc1)Nc1cccc(Oc2ncccc2-c2ccnc(N[C@H]3CCCNC3)n2)c1 [Compound 133, hydrochloride] next
## Result 6.92

###

Assignment: determine reported log10(IC50) for the given molecules.
# Target Entity: kinase domain of IRE1 alpha (His-tagged kinase dead construct KR, AA G547-L977, D688N) (Homo sapiens (Human), UniProt O75460, D688N)
# Run Description: IRE1α TR-FRET competition binding assay
# Experimental Parameters: competition with Kinase Tracer 236, 0.1 μM; one hour at room temperature
Counter-ions that a name gives are not always drawn.
// stored as log10 of IC50 expressed in nM

## Task Data request, read-out log10(IC50), for COC1CNCC(Nc2nccc(-c3cccnc3Oc3cc(F)c(NS(=O)(=O)Cc4ccccc4)c(F)c3F)n2)C1 (single isomer, unassigned) [Compound 317]
## Result 2.15

## Task Query CN(C)C1CCC(Nc2nccc(-c3cccnc3Oc3cc(F)c(NS(=O)(=O)Cc4ccccc4)c(F)c3F)n2)CC1F (single isomer, unassigned) [Compound 308] next
## Result 1.92

## Task Query CCCS(=O)(=O)Nc1cc(F)c(Oc2ncccc2-c2ccnc(N[C@H]3CC[C@H](N)CC3)n2)c(Cl)c1 [Compound 121, hydrochloride] next
## Result 1.41

## Task Query COc1cc(Oc2ncccc2-c2ccnc(N[C@@H]3CNC[C@@H](F)C3)n2)cc(F)c1NS(=O)(=O)Cc1ccccc1 next
## Result 1.15

## Task Query CN(C)C1CCC(Nc2nccc(-c3cccnc3Oc3cc(F)c(NS(=O)(=O)Cc4ccccc4)c(F)c3F)n2)CC1F (single isomer, unassigned) [Compound 307, hydrochloride] next
## Result -0.51

## Task Query CC(C)(F)C1CNCC(Nc2nccc(-c3cccnc3Oc3cc(F)c(NS(=O)(=O)Cc4ccccc4)c(F)c3F)n2)C1 (single isomer, unassigned) [Compound 335, hydrochloride] next
## Result 2.52

## Task Query O=S(=O)(Cc1cccnc1)Nc1c(F)cc(Oc2ncccc2-c2ccnc(N[C@@H]3CNC[C@@H](F)C3)n2)c(F)c1F next
## Result 0.00

## Task Query CS(=O)(=O)c1ccc(CS(=O)(=O)Nc2c(F)cc(Oc3ncccc3-c3ccnc(N[C@@H]4CNC[C@@H](F)C4)n3)c(F)c2F)cc1 next
## Result -0.85

## Task Query Cc1cc(NS(=O)(=O)c2ccccc2Cl)cc(F)c1Oc1ncccc1-c1ccnc(N[C@H]2CCCNC2)n1 [Compound 114, hydrochloride] next
## Result 0.86

## Task Query COCCS(=O)(=O)Nc1c(F)cc(Oc2ncccc2-c2ccnc(N[C@@H]3CNC[C@@H](F)C3)n2)c(F)c1F next
## Result 1.15

## Task Query Cc1cc(NS(=O)(=O)Cc2ccccc2)c(F)c(F)c1Oc1ncccc1-c1ccnc(N[C@@H]2CNC[C@H](C)C2)n1 next
## Result 0.69

## Task Query O=S(=O)(Cc1ccccc1F)Nc1c(Cl)cc(Oc2ncccc2-c2ccnc(N[C@@H]3CNC[C@@H](F)C3)n2)c(F)c1F next
## Result -0.48

## Task Query CC1(CF)CNCC(Nc2nccc(-c3cccnc3Oc3cc(F)c(NS(=O)(=O)Cc4ccccc4)c(F)c3F)n2)C1 (single isomer, unassigned) [Compound 294] next
## Result -0.23

## Task Query Cc1cc(Oc2ncccc2-c2ccnc(N[C@@H]3CNC[C@@](C)(F)C3)n2)c(F)c(F)c1NS(=O)(=O)Cc1ccccc1 next
## Result -0.64

## Task Query CN1CCC[C@H](Nc2nccc(-c3cccnc3Oc3ccc(NS(=O)(=O)Cc4ccccc4)c(F)c3F)n2)C1 next
## Result 1.04

## Task Query CC(F)C1CNCC(Nc2nccc(-c3cccnc3Oc3cc(F)c(NS(=O)(=O)Cc4ccccc4)c(F)c3F)n2)C1 (single isomer, unassigned) [Compound 342, hydrochloride] next
## Result -0.80

## Task Query CCCS(=O)(=O)Nc1cc(F)c(Oc2ncccc2-c2ccnc(N[C@H]3CC[C@H](N)CC3)n2)c(F)c1 [Compound 122, hydrochloride] next
## Result 1.30

## Task Query Cc1ccc(CS(=O)(=O)Nc2c(F)cc(Oc3ncccc3-c3ccnc(N[C@@H]4CNC[C@@](C)(F)C4)n3)c(F)c2F)cc1 next
## Result -0.82

## Task Query N[C@H]1CC[C@H](Nc2nccc(-c3cccnc3Oc3ccc(NS(=O)(=O)Cc4ccccc4)c(F)c3F)n2)CC1 next
## Result 0.61

## Task Query O=S(=O)(Nc1ccc(Oc2ncccc2-c2ccnc(N[C@H]3CCCNC3)n2)cc1)c1ccccc1Cl [Compound 134, hydrochloride] next
## Result 1.32

## Task Query Cc1cc(CS(=O)(=O)Nc2c(F)cc(Oc3ncccc3-c3ccnc(N[C@@H]4CNC[C@@H](F)C4)n3)c(F)c2F)no1 next
## Result 0.61

## Task Query Cn1cc(S(=O)(=O)Nc2ccc(Oc3ncccc3-c3ccnc(N[C@H]4CCCNC4)n3)c(F)c2F)cn1 next
## Result 2.38

## Task Query N#Cc1c(NS(=O)(=O)Cc2ccccc2)ccc(Oc2ncccc2-c2ccnc(N[C@H]3CCCNC3)n2)c1F [Compound 163, hydrochloride] next
## Result 0.82

## Task Query O=S(=O)(Cc1ccccc1)Nc1ccc(Oc2ncccc2-c2ccnc(N[C@@H]3CNC[C@@H](F)C3)n2)c(F)c1F next
## Result 0.66

###

# Target Entity: kinase domain of IRE1 alpha (His-tagged kinase dead construct KR, AA G547-L977, D688N) (Homo sapiens (Human), UniProt O75460, D688N)
# Run Description: IRE1α TR-FRET competition binding assay
# Experimental Parameters: competition with Kinase Tracer 236, 0.1 μM; one hour at room temperature
pIC50: −log10 of the molar value.
// label = Fulfilled if pIC50 is not less than 8, otherwise Not fulfilled

## Task Could you please find out whether O=S(=O)(Cc1cc(F)ccc1F)Nc1c(F)cc(Oc2ncccc2-c2ccnc(N[C@@H]3CNC[C@@H](F)C3)n2)c(F)c1F has pIC50 that meets 8 or exceeds it?
## Result Fulfilled

## Task Query O=S(=O)(Cc1ccccc1)Nc1c(F)cc(Oc2ncccc2-c2ccnc(NC3CNCC(CF)C3)n2)c(F)c1F (single isomer, unassigned) [Compound 277] next
## Result Not fulfilled

## Task Query O=S(=O)(CCC1CC1)Nc1c(F)cc(Oc2ncccc2-c2ccnc(N[C@@H]3CNC[C@@H](F)C3)n2)c(F)c1F next
## Result Fulfilled

## Task Query CCCS(=O)(=O)Nc1cc(C)c(Oc2ncccc2-c2ccnc(N[C@H]3CCCNC3)n2)cc1C [Compound 126] next
## Result Not fulfilled
